Measurement Target: AHR (Mus musculus)
Sequence (P30561 whole entry P471L/N533S/M589L, form open): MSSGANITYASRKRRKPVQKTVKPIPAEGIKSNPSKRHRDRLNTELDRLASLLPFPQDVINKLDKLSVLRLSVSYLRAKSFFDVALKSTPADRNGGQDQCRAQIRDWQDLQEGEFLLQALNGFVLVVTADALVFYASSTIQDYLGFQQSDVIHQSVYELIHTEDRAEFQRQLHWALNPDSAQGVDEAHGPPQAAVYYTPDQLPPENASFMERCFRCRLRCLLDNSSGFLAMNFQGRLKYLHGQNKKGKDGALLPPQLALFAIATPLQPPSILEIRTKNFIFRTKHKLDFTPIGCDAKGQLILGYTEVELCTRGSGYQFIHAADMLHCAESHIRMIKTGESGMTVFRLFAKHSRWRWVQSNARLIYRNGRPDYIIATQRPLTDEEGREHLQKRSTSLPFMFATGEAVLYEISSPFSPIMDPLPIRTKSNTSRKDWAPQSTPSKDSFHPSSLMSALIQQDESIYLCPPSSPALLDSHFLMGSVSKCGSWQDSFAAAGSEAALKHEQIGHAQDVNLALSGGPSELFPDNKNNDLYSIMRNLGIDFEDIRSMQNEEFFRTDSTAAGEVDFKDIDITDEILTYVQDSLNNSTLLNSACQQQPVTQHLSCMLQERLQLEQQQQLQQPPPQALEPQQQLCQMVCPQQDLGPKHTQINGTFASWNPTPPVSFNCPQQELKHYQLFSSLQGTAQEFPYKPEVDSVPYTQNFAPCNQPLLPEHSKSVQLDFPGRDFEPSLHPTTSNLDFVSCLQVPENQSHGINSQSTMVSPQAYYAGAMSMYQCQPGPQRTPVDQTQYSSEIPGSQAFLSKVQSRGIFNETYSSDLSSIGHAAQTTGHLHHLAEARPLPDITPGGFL
Assay Text: In vitro assay 3: antagonism in mouse cell line (AHR transactivation, firefly luciferase reporter, kynurenic acid prestimulated)
Assay type: cell-based
Measurement Context: mouse Hepa 1c1c7 cells, 200 μM kynurenic acid, 20 hours, read-out: AHR Antagonism Mouse IC50
Method: Examples were tested in selected biological assays one or more times. […] Firefly luciferase activity was determined by the SteadyGlo Luciferase Assay System (Promega, #E2550).
Endpoint Label: pIC50
Scale note: pIC50 = -log10(concentration in M).

Using AHR (Mus musculus) as the test system, report measured pIC50 of COc1ccc(-c2nc3c4ccc(C)cc4nc(N[C@@H]4CCCCNC4=O)n3n2)cc1 [Example 228] .
7.41

Find pIC50 for CS(=N)(=O)c1ccc(-c2nc3c4ccccc4nc(N[C@@H]4CCCCNC4=O)n3n2)cc1 (single isomer, unassigned) [Example 307] on AHR (Mus musculus) and write it down.
7.07

Param request: pIC50 | system AHR (Mus musculus) | item COc1ccc(-c2nc3c4ccccc4nc(N[C@@H]4CCCCNC4=O)n3n2)cc1 [Example 29]
9.28

Send back AHR (Mus musculus) pIC50 of O=C1NCCC[C@H]1Nc1nc2ccccc2c2nc(-c3ccc(Cl)cc3OC(F)F)nn12 [Example 527] only.
8.26

State pIC50 (AHR (Mus musculus)) of O=C1NCCCC[C@H]1Nc1nc2ccccc2c2nc(-c3cccnn3)nn12 [Example 644] .
7.21

Look up and report measured pIC50 (AHR (Mus musculus)) for the following molecule: O=C1NCCCC[C@H]1Nc1nc2ccccc2c2nc(-c3cnn(C4COC4)c3)nn12 [Example 595]
7.47

Write pIC50 of COc1ccc(-c2nc3c4ccccc4nc(N[C@@H]4CCCCNC4=O)n3n2)c(C(F)(F)F)c1 [Example 512] ; system used: AHR (Mus musculus)
8.61

Fill in pIC50 for O=C1NCCCCCC1Nc1nc2ccccc2c2nc(-c3ccccc3OC(F)F)nn12 (stereo not shown) [Example 474] tested with AHR (Mus musculus).
8.86

Write down the reported pIC50 (system: AHR (Mus musculus)) of Nc1cccc(-c2nc3c4ccccc4nc(N[C@@H]4CNCCNC4=O)n3n2)c1 [Example 413]
7.21

# return pIC50 for O=C1NCCCC[C@H]1Nc1nc2c(C(F)(F)F)cccc2c2nc(-c3cnn(CC4CCC4)c3)nn12 [Example 744] , test system: AHR (Mus musculus)
7.94

Provide the reported pIC50 (system: AHR (Mus musculus)) for CS(=O)(=O)c1ccc(-c2nc3c4ccccc4nc(N[C@@H]4CCCNC4=O)n3n2)cc1 [Example 374]
6.68

Please report the measured pIC50 for O=C1NCC[C@H]1Nc1nc2ccccc2c2nc(-c3ccsc3)nn12 [Example 342] tested on AHR (Mus musculus).
6.76

GET pIC50 where system = AHR (Mus musculus) and item = CCSc1cccc2c1nc(N[C@@H]1CCCCNC1=O)n1nc(-c3cnn(C)c3)nc21 [Example 769]
6.82

Give AHR (Mus musculus) pIC50 for the following molecule: O=C1NCCCC[C@H]1Nc1nc2cccc(Cl)c2c2nc(-c3ccc(F)cc3)nn12 [Example 170]
9.23

Enter measured pIC50, system AHR (Mus musculus), for the molecule shown: Cc1ccccc1-c1nc2c3ccccc3nc(NC3CNCCNC3=O)n2n1 (single isomer, unassigned) [Example 46]
8.28

Provide pIC50, tested on AHR (Mus musculus), for COc1ccc(-c2nc3c4cccc(Br)c4nc(N[C@@H]4CCNC4=O)n3n2)cc1 [Example 218] .
7.53
